For each of the compounds below, state its normalized growth.
- assay_name: chemical genetic growth profiling, strain panel (AID 1159580);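 further: tested at 20 µM; growth read once vehicle control cultures reached saturation at 30 °C; 1 = growth at the plate median or of vehicle wells; lower values mean less growth of the strain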
- experimental_conditions: S. cerevisiae deletion strains, growth OD, locus YLR320W, strain mms22, active compounds read low
The campaign covered roughly 5,500 compounds. About 2,000 (36%) were called active. Inconclusive results (about 18%) are left out. Some of the results follow.
One number for each entry.

COc1cc(O)c(C)c(O)c1 = 1.02
CC(C)=CCC/C(C)=C/COc1ccc2ccc(=O)oc2c1 = 0.974
CCS(=O)(=O)CCn1c([N+](=O)[O-])cnc1C = 0.972
COc1c(O)cc(O)cc1O = 0.994
CC(C)=CCOc1cc2oc(=O)ccc2cc1O = 0.848
COc1cc(O)c(C(=O)O)c(O)c1 = 1.01
COc1ccc2ccc(=O)oc2c1CC=C(C)C = 0.607
O=c1ccc2cc(O[C@@H]3O[C@H](CO)[C@@H](O)[C@H](O)[C@H]3O)c(O)cc2o1 = 0.984

State the recorded normalized growth for every item in the following list.
1. CC(=O)O[C@@H]1CC2C(C)(C)[C@H](O)C[C@H](O)[C@]2(C)C2CC[C@@]3(C)C(=CC(=O)O[C@H]3c3ccoc3)[C@@]21C (stereo not given in full)
2. COc1cc(O)c(C(C)=O)c(OC)c1

Response:
[1.02, 0.972]

###

- assay_name: chemical genetic growth profiling, strain panel (AID 1159580);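 further: tested at 20 µM; growth read once vehicle control cultures reached saturation at 30 °C; 1 = growth at the plate median or of vehicle wells; lower values mean less growth of the strain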
- experimental_conditions: S. cerevisiae deletion strains, growth OD, locus YFR019W, strain FAB1, active compounds read low
Hit rate of the full screen: of about 5,500 compounds, about 2,000 (36%) were called active. Inconclusive results (about 18%) are left out. This is one part of the list.
measure_name: normalized growth
Answers are plain numbers.

CSC(SC)=C(C#N)C(=O)c1ccccc1Cl = 0.105

I'm hoping you can list normalized growth for every compound here, please.
1. NNC(=O)COc1ccc(C2SCCS2)cc1
2. N#CC(C#N)=NNc1ccc(C(F)(F)F)cc1
3. Oc1ccc(-n2nnnc2SCc2ccc(OC(F)(F)F)cc2)cc1
4. N#Cc1c(N)sc2c1CCc1ccccc1-2
5. Cc1ccc(C(=O)Nc2ccc3ccccc3n2)cc1
6. Nc1ccccc1C(=O)N/N=C\c1cc(Cl)cc(Cl)c1O
7. CCCCCc1ccc(S(=O)(=O)Nc2ncc(C)cc2Br)cc1

Response:
0.144
0.12
0.794
0.833
0.983
0.838
0.939

// input: 3 compounds below; output: normalized growth for each
1. Cc1nn(Cc2cccc(C(=O)O/N=C(/N)c3ccc(Cl)cc3)c2)c(C)c1Br
2. CSc1nc(Sc2n[nH]c(-c3ccccc3)n2)cc(Sc2n[nH]c(-c3ccccc3)n2)n1
3. Cc1oc(-c2ccc(Cl)cc2)cc1C(=O)N1CCN(c2ccc(C(F)(F)F)cn2)CC1

Response:
0.974
1
0.992

###

- assay_name: chemical genetic growth profiling, strain panel (AID 1159580);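 further: tested at 20 µM; growth read once vehicle control cultures reached saturation at 30 °C; 1 = growth at the plate median or of vehicle wells; lower values mean less growth of the strain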
- experimental_conditions: S. cerevisiae deletion strains, growth OD, locus YDR069C, strain doa4, active compounds read low
Among all 5,500 compounds or so, about 2,000 (36%) were called active. Roughly 18% stayed inconclusive and do not appear here. Some of the results follow.
Hi there, I'd appreciate the recorded normalized growth for every entry that follows.
Numbers only.

Cn1c([N+](=O)[O-])cnc1COC(N)=O = 0.984

Would you mind listing normalized growth for each of the following compounds?
1. O=C(/C=C/C(=O)Oc1ccccc1C(=O)O)Oc1ccccc1C(=O)O
2. O=c1n(CCCN2CCN(c3cccc(Cl)c3)CC2)nc2ccccn12
3. CCOC(=O)C1=C(C)NC(C)=C(C(=O)OC)C1c1cccc([N+](=O)[O-])c1 (stereo unspecified)
4. FC(F)(F)COCC(F)(F)F

Response:
[0.98, 0.966, 1.01, 1.02]

These measurements were taken from PubChem BioAssay AID1159580.
